# target-desc: T1, human CD22-ECD-His protein (human, UniProt P20273 20-687)
# T1 construct: Made in house in HEK293E; also called hCD22-ECD-His; recombinant human CD22-ECD His protein; not shown: His tag
# T1 sequence: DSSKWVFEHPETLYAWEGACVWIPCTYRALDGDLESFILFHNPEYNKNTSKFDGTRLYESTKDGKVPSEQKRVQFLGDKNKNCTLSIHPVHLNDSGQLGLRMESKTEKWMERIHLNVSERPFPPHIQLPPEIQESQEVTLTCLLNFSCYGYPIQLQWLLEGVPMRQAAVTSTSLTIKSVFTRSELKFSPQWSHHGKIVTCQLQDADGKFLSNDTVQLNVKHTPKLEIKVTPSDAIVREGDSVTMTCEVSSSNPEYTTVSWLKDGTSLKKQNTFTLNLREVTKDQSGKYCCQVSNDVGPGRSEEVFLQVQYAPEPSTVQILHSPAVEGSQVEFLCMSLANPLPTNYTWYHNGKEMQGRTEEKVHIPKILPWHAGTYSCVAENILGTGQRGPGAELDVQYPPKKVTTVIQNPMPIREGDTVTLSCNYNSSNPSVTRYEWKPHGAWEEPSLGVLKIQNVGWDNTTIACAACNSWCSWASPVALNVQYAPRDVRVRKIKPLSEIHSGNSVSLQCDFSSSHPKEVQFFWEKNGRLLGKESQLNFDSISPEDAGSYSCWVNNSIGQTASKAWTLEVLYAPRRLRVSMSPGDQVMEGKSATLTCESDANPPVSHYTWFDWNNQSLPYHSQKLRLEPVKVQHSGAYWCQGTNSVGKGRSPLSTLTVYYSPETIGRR
# protocol-summary: ELISA, human CD22-ECD-His coated
EC50 (read off the curve): recorded values

Recorded EC50 (read off the curve), per entry:
Q: // EC50 (read off the curve) lookup, key: F2.42.9 (antibody, human IgG1, lambda, V domains shown, Human-murine chimeric IgG1, lambda) VH: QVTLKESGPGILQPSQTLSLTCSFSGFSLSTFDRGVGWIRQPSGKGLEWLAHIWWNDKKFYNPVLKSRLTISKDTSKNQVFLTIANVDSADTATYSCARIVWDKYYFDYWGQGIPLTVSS VL: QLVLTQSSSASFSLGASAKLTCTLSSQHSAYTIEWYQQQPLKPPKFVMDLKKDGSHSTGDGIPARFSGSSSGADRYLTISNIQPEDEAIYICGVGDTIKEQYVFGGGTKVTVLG
Ans: ~0.04 nM

Q: Further, for F1.200.11 (antibody, human IgG1, kappa, V domains shown, Human-murine chimeric IgG1, kappa) VH: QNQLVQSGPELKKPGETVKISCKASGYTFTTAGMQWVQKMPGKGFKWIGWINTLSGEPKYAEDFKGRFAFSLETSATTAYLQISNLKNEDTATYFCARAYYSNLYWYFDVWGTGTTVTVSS VL: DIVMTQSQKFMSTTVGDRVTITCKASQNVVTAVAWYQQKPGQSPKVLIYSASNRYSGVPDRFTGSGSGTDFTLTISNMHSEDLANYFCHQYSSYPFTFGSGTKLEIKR ?
Ans: ~0.03 nM

Q: Further, for F1.105.11 (antibody, human IgG1, kappa, V domains shown, Human-murine chimeric IgG1, kappa) VH: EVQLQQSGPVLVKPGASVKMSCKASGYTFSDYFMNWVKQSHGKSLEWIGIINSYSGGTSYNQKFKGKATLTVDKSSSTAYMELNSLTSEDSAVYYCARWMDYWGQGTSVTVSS VL: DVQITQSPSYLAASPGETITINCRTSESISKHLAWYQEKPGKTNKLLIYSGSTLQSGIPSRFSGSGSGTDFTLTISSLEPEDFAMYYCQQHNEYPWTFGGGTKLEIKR ?
Ans: ~0.04 nM

Q: Further, for F1.7.6 (antibody, human IgG1, kappa, V domains shown, Human-murine chimeric IgG1, kappa) VH: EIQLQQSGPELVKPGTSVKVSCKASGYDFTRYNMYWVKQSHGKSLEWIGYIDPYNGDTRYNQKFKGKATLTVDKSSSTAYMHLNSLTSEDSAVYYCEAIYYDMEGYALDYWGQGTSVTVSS VL: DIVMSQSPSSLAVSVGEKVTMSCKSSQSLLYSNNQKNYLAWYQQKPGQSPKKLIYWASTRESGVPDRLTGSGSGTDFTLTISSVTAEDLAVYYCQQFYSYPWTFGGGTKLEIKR ?
Ans: ~0.02 nM

Q: Further, for F2.173.9 (antibody, human IgG1, lambda, V domains shown, Human-murine chimeric IgG1, lambda) VH: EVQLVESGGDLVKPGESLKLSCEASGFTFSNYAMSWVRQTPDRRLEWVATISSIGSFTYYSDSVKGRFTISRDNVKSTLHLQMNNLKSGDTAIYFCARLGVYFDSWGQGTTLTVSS VL: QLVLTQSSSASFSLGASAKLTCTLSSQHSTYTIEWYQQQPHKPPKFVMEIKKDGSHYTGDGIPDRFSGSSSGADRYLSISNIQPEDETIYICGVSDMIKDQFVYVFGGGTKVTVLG ?
Ans: ~0.03 nM

Kindly consider the entry below.
Q: // EC50 (read off the curve) lookup, key: F1.172.13 (antibody, human IgG1, kappa, V domains shown, Human-murine chimeric IgG1, kappa) VH: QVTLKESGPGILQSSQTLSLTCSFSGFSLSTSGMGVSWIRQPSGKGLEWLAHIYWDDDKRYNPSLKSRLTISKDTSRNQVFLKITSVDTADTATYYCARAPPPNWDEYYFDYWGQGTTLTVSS VL: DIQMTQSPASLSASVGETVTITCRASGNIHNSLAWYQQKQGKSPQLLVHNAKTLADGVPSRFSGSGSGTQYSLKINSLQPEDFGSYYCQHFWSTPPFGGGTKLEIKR
Ans: ~0.03 nM
